Organism: Rattus norvegicus
Experiment: Open TG-GATES - Regimen: Single
Type: toxicity, organism-based, Sprague-Dawley
Parameters: regimen Single, gender Male, age 6 weeks
Conditions: in vivo, po, 300 mg/kg, 9 h, tissue Blood, route gavage, dose level Middle
observedProperty: Fbg (mg/dL)
One number for each entry, in mg/dL.

// worked examples, Fbg included
compound | observedProperty | readoutUnit | valueObserved
CCOC(=O)CCC(=O)O[C@H]1[C@H](O[C@@H]2[C@@H](C)[C@H](O[C@H]3C[C@@](C)(OC)[C@@H](O)[C@H](C)O3)[C@@H](C)C(=O)O[C@H](CC)[C@@](C)(O)[C@H](O)[C@@H](C)C(=O)[C@H](C)C[C@@]2(C)O)O[C@H](C)C[C@@H]1N(C)C [ERYTHROMYCIN ETHYLSUCCINATE] | Fbg | mg/dL | 318.4
COc1ccc2[nH]c([S+]([O-])Cc3ncc(C)c(OC)c3C)nc2c1 (centres undefined) | Fbg | mg/dL | 223.8
NC(N)=Nc1nc(CSCCC(N)=NS(N)(=O)=O)cs1 | Fbg | mg/dL | 225.4

# context switch: different compound, same Fbg
According to the records, this compound `COC1=CC(=O)C[C@@H](C)[C@]12Oc1c(Cl)c(OC)cc(OC)c1C2=O` displays Fbg of 214
